TGI by entry:
Test system: SK-OV-3 ovarian
Test: NCI tumour cell line growth inhibition, 48 h

Answered cases to consult:
CC(C)OP(=O)(OC(C)C)C(C(F)(F)F)C(F)(F)F = > 100 µM
CSc1ccc2c(c1)c(CCN)c(C)n2Cc1ccc(Cl)c(Cl)c1 = 3.09 µM

Please turn your attention to the following entry.
Return TGI measured with SK-OV-3 ovarian given this compound: O=[N+]([O-])c1cccc(C2SCc3nc4ccccc4n32)c1 (stereo not given)
> 100 µM

* * *

Test system: A498 renal
Test: NCI tumour cell line growth inhibition, 48 h
Each entry gets false (0) if its TGI stays under 30 µM, and true (1) if its TGI is 30 µM or above.

Solved entries:
CC1=C(C)C(=O)OC(C(C)(O)C2(O)CCC3(O)C4CC(Cl)C5(O)C(O)C=CC(=O)C5(C)C4CCC32C)C1 (centres undefined) = true (1)
CSC1=Nc2c(c(C)c(-c3ccccc3)n2COC(CO)CO)C2=NC(=O)C(C)N12 (centres undefined) = true (1)
CCC(=O)C1=C(OC(C)=O)C2Cc3c(n(C)c4ccccc34)C(C1)N2C (centres undefined) = true (1)
O=C1Cc2cc(CCn3ccnc3)c(Cl)cc2N1 = true (1)

TGI >= 30 µM for C[N+](C)(C)CCOP(=O)(O)OP(=O)([O-])OCC1CCC(n2ccc(N)nc2=O)O1 (centres undefined) ?
true (1)

TGI >= 30 µM for `Clc1ccc(-c2nc3c(-c4ccc(Cl)cc4)nc(-c4ccccc4)cn3c2-c2ccc(Cl)cc2)cc1` ?
true (1)

TGI >= 30 µM for `CCOC(=O)CC(=O)ON(C)C(=O)Cc1ccccc1` ?
true (1)

TGI >= 30 µM for COC1/C=C\C=C(/C)C(=O)NC2=CC(=O)C=C(C2=O)C(OC)C(C)CC(OC)C(OC)C(C)/C=C(/C)C1OC(N)=O (centres undefined) ?
false (0)

* * *

Tested on: KM12 colon
Test: NCI tumour cell line growth inhibition, 48 h
quantity: TGI

Answered cases to consult:
CCOP(=O)(CCP(=O)(OCC)OCC)OCC.C[CH2][Sn]([Cl])([Cl])[CH2]C = > 100 µM
COc1ccc(C2CCc3nc4nc(N)nc(N)c4cc3C2)cc1 (configuration not stated) = > 100 µM
CS(C)(=O)=N/C=C\C(=O)C(Cl)(Cl)Cl = > 100 µM
CN(C)CCNC(=O)c1cccc2nc3ccc4ccccc4c3nc12 = 0.876 µM
CCN(CC)CCN1c2ccccc2Sc2ccc3ccccc3c21 = 19.7 µM

So what does the record say about TGI for `Cc1c2ccccc2c(C)c2c3c(ccc12)C(=O)C=CC3=O` ?
> 67.6 µM

So what does the record say about TGI for CCOC(=O)C(SCCO)C(C(=O)OCC)n1ccc(N)nc1=O (configuration not stated) ?
> 100 µM

So what does the record say about TGI for `C1CNCCN2CCCNCCN(C1)CC2` ?
> 100 µM

* * *

System: EKVX NSCLC
Test: NCI tumour cell line growth inhibition, 48 h
quantity: TGI

Answered cases to consult:
CCN1CCC[C@H]1c1cc(O)c2c(c1OC)C[C@H]1C[C@H]3[C@H](N)C(=O)C(C(N)=O)=C(O)[C@@]3(O)C(=O)C1=C2O = 3.54 µM
C=CCN1CCC(OC(=O)C(O)(/C=C\CC)C2CCCC2)CC1 (centres undefined) = > 100 µM
O=C1C(NS(=O)(=O)c2ccccc2)=C(n2cnc3ccccc32)C(=O)c2ccccc21 = > 100 µM
Cc1ccnc(NS(=O)(=O)c2ccc(NC(=O)c3ccc4nc5ccccc5c(Nc5ccc(S(=O)(=O)Nc6nccc(C)n6)cc5)c4c3)cc2)n1 = > 100 µM
O=C(NCCCN1CCN(CCCNC(=O)c2cnc3ccccc3n2)CC1)c1cnc2ccccc2n1 = > 100 µM
CCSC1(SCC)CCN(C=NC(C)(C)C)C1 = > 100 µM

So what does the record say about TGI for CC(=O)OC1(C#N)CC2OC1C1C2N1C(=O)c1ccccc1 (centres undefined) ?
> 100 µM

So what does the record say about TGI for `C/C(Cl)=N\OC(=O)Nc1ccc([N+](=O)[O-])cc1` ?
35.2 µM

So what does the record say about TGI for CCC(=O)C1=C(OC(C)=O)C2Cc3c(n(C)c4ccccc34)C(C1)N2C (centres undefined) ?
> 100 µM

* * *

TGI by entry:
Tested on: HL-60(TB) leukemia
Test: NCI tumour cell line growth inhibition, 48 h
Numbers only; they are read as µM.

CN(Cc1cnc2nc(N)nc(N)c2n1)c1ccc(C(=O)NC(CCS(=O)(=O)O)C(=O)O)cc1 (stereo not given) = 1.62
CCOC(=O)c1ccc(N=C2SC(=S)N(c3ccc(F)cc3)C2=Nc2ccc(C(=O)OCC)cc2)cc1 = 22.3
CCCCCCCCCCCCCCCCOC(=O)C(C(=O)OCCCCCCCCCCCCCCCC)[N+](C)(C)CCOC(C)=O = 6.12
COc1cc(CNC(=O)/C=C/C=C/c2ccc3c(c2)OCO3)ccc1OCc1cn(-c2ccc(Cl)c(Cl)c2)nn1 = 5.73
CCCOc1ccc(/C(Cl)=C(\C=O)c2ccc(OC)c(OC)c2)cc1OCCC = 20.9
Cc1cc(C)nc(NS(=O)(=O)c2ccc(Nc3c4ccccc4nc4c(C(=O)NCCN(C)C)ccc(Cl)c34)cc2)n1 = 7.6
COc1ccc(-c2cc(-c3ccccc3)n(C3OC(COC(C)=O)C(OC(C)=O)C(OC(C)=O)C3OC(C)=O)c(=S)c2C#N)cc1 (stereo not given) = 13.4
CCN1CCN(CCOc2ccc(CNc3ccc4nc(CCC5CCCCC5)[nH]c4c3)cc2)CC1 = 3.92
CCCCCCN(CCCCCC)CCCNc1nccc2ccccc12 = 4.26

Please turn your attention to the following entry.
Return TGI measured with HL-60(TB) leukemia given this molecule: `CCN(CC)CCn1ncc2ccc3c(c(=O)c4cccnc4n3CCN(CC)CC)c21`
2.83

* * *

Tested on: UACC-62 melanoma
Test: NCI tumour cell line growth inhibition, 48 h
TGI by entry:

Answered cases to consult:
C=C1CC(OC(C)=O)/C=C(/C)CCC(C(C)(C)O)CC1O (stereo unspecified) = > 100 µM
C=CCCCCOC1C=CC(OC(C)=O)C(COC(C)=O)O1 (stereo unspecified) = > 100 µM

So what does the record say about TGI for `COc1ccc2c(c1)C(=O)c1c-2n(CCCN=[N+]=[N-])c(=O)c2ccccc12` ?
> 100 µM

So what does the record say about TGI for O=C(CC(=O)N1N=C(n2ccc3ccccc32)CC1c1ccccc1)Nc1cccc(Cl)c1 (stereo unspecified) ?
> 100 µM

So what does the record say about TGI for CC(=O)OC1(C#N)CC2OC1C1C2N1C(=O)c1ccccc1 (stereo unspecified) ?
> 100 µM

* * *

GI50 by entry:
System: NCI-H226 lung
Experiment: NCI tumour cell line growth inhibition, 48 h

Return GI50 measured with NCI-H226 lung given this compound: `N/C(=N\O)c1ncc(-c2ccc(C(F)(F)F)cc2)c(NC2CCCCCC2)n1`
4.24 µM

Return GI50 measured with NCI-H226 lung given this compound: `O=C(Nc1cccc(Cl)c1)Nc1cccc(Cl)c1`
> 100 µM

Return GI50 measured with NCI-H226 lung given this compound: `COc1cc(CNC(=O)/C=C/C=C/c2ccc3c(c2)OCO3)ccc1OCc1cn(-c2ccc(Cl)c(Cl)c2)nn1`
1.74 µM

Return GI50 measured with NCI-H226 lung given this compound: `O=C1C2=C(C(=O)c3c(O)ccc(O)c31)N(c1ccc(N3CCOCC3)nc1)Cc1ccccc1O2`
1.91 µM

Return GI50 measured with NCI-H226 lung given this compound: O=C1NC(=NCc2cccs2)SC1Cc1ccc2ncccc2c1 (stereo not given)
> 25 µM

* * *

Tested on: HT29 colon
Assay: NCI tumour cell line growth inhibition, 48 h
quantity: TGI

COc1ccc(/C=C/C(=O)c2sc(N)nc2C)cc1 = > 100 µM
COc1ccc(/C=C/c2cc(OC)c(O[Si](C)(C)C(C)(C)C)c(OC)c2)cc1 = > 100 µM
C=C1CC(OC(C)=O)/C=C(/C)CCC(C(C)(C)O)CC1O (configuration not stated) = > 100 µM
Cc1cccc(CN(C)c2ccc(CO)c(Cl)c2)c1 = > 55.3 µM

So what does the record say about TGI for `CN1CCc2c(sc3nc(Nc4ccccc4)n(N)c(=O)c23)C1` ?
> 100 µM

So what does the record say about TGI for `Cc1c2ccccc2c(C)c2c3c(ccc12)C(=O)C=CC3=O` ?
> 65.8 µM

So what does the record say about TGI for `O=C1Cc2cc(CCn3ccnc3)c(Cl)cc2N1` ?
> 100 µM

* * *

Test system: SK-OV-3 ovarian
Assay: NCI tumour cell line growth inhibition, 48 h
TGI by entry:

Answered cases to consult:
CCCc1cc(=O)oc2c(C(=O)CC(C)C)c(O)c(CC=C(C)C)c(O)c12 = 41.2 µM
CCOC(=O)C(Cc1ccc2c(c1)CCC2)(Cc1ccc2c(c1)CCC2)C(=O)OCC = > 100 µM
Cc1nn2c(N)cc(=O)nc2nc1/C=C/c1ccc(N(C)C)cc1 = > 100 µM
COc1ccc(/C=C/C(=O)c2sc(N)nc2C)cc1 = > 100 µM
COc1cc2c(cc1OC)C(CCc1ccc(Cl)cc1)N(C)CC2 (stereo unspecified) = > 100 µM
COc1cc2cc(c1Cl)N(C)C(=O)CC(OC(=O)C(C)C)C1(C)OC1C(C)C1CC(O)(NC(=O)O1)C(OC)/C=C/C=C(C)C2 (stereo unspecified) = 53.4 µM
Cc1cc2c3ccccc3n(C)c2c2c1C(=O)c1ccccc1C2=O = 61.7 µM
COc1cc(Cn2c3c(c4c(CN(C)C)c(O)ccc42)C(=O)c2ccccc2C3=O)cc(OC)c1 = 48.3 µM

So what does the record say about TGI for `CC(/C=C/c1ncccc1OCCCCCC(=O)O)=N\NC1=NCCN1` ?
> 100 µM

So what does the record say about TGI for `COc1ccc(/C=C2/C(=O)N(C(=O)c3ccccc3O)N=C2C)cc1OC` ?
> 100 µM

So what does the record say about TGI for O=C1NC(=NCc2cccs2)SC1Cc1ccc2ncccc2c1 (stereo unspecified) ?
> 25 µM

From: PubChem BioAssay (NCI)
